Tested on: PPARg:RXRa IVT, anti-PPARg (NR concentration 270 nM, RXRa partner concentration 90 nM)
Experiment: PBM binding z-score (relative to random genomic background probes); higher = stronger binding; sequences stand for … in GC…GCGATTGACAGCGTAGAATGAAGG
measured-metric: PBM binding z-score
Form: value (number only, do not type unit).

## Task Value lookup for PBM binding z-score; key = CAAGACAGGTGAAAGGTAACTCAGTCTGGTACGC
## Result 2.88

## Task Value lookup for PBM binding z-score; key = ACAGACAGGTGAGTGAAAGTAACTCAGCTGGACG
## Result 0.438

## Task Value lookup for PBM binding z-score; key = GCTGCTGGGTCAACTGATGGTCAGCTAAAGCTCG
## Result 3.45

## Task Value lookup for PBM binding z-score; key = CCTACTGGGGCATCAGGTCATTGATATCAACGTT
## Result 6.32

## Task Value lookup for PBM binding z-score; key = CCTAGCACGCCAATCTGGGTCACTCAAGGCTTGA
## Result 4.76

## Task Value lookup for PBM binding z-score; key = ACTAGCAGGCAAAGTTTGGGTCACTCAAACAAAG
## Result 0.492

## Task Value lookup for PBM binding z-score; key = TCGAGTAGGTTAGTCGCGGCATTCAGCCAACATA
## Result 0.971

## Task Value lookup for PBM binding z-score; key = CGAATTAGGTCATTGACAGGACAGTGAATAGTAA
## Result 7.99

## Task Value lookup for PBM binding z-score; key = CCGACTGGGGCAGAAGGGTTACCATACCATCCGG
## Result 1.56

## Task Value lookup for PBM binding z-score; key = GCGACTGGGGCAAAGCATGTTACCATAAGGTTGG
## Result 3.23

## Task Value lookup for PBM binding z-score; key = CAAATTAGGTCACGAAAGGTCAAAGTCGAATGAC
## Result 8.9

## Task Value lookup for PBM binding z-score; key = CCGACTGGGGCAGAAATGTTACCATACCATCCGG
## Result 0.993
